Molecular target: human IL-17A (human, UniProt Q16552 24-155, biotinylated with Sulfo-NHS-LC-Biotin in the AlphaScreen assays only)
Sequence (Q16552 other isoform, or with tags, fused parts or gaps): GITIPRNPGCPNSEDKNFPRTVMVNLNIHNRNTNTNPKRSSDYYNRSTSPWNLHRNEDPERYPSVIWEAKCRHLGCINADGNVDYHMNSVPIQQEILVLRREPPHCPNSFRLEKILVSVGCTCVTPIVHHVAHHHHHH
Assay: cell-based or functional assay
reported.property: IL-17A-induced IL-6 production in HT-1080 cells, IC50 (nM)
Respond numerically; units are nM and should not be typed.

Qu. Report IL-17A-induced IL-6 production in HT-1080 cells, IC50 for 09D10 (VHH, Class 2 Nanobody (anti-IL-17A and IL-17A/F); not shown: c-myc, His6 tag) VHH: EVQLVESGGGLVQAGGSLSLSCAASGSVFRIDVMRWHRQAPGKQREFLASIASGGTTNYADSVKGRFTISRDNAKNTVYLQMNSLKPEDTAVYYCGANAESGPYTYWGLGTQVTVSS please.
Ans. 8.5

Qu. Which measured IL-17A-induced IL-6 production in HT-1080 cells, IC50 value corresponds to 18B05 (VHH, Class 4 Nanobody (cross-reactive: anti-IL-17A, IL-17F and IL-17A/F); not shown: c-myc, His6 tag) VHH: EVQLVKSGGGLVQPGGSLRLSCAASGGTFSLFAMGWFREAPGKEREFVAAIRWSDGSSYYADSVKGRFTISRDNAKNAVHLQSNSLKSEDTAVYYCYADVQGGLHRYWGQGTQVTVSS ?
Ans. 20.6

Qu. Given the entry 02A08 (VHH, Class 2 Nanobody (anti-IL-17A and IL-17A/F); not shown: c-myc, His6 tag) VHH: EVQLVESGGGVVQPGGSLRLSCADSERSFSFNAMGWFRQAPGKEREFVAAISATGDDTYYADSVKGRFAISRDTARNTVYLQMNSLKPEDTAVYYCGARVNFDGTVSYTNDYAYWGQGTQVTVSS , report its measured IL-17A-induced IL-6 production in HT-1080 cells, IC50.
Ans. 8.8

Qu. Data request, read-out IL-17A-induced IL-6 production in HT-1080 cells, IC50, for 04F09 (VHH, Class 2 Nanobody (anti-IL-17A and IL-17A/F); not shown: c-myc, His6 tag) VHH: EVQLVESGGGLVQPGGSLRLSCAASGRTFSTHAMGWFRQAPGKERDFVAAIRWSDGSSFYADSVKGRFTISRDNAKNAVYLQSNSLKSEDTAVYVCYADVEGPTALHKYWGRGTQVTVSS
Ans. 9.7

Qu. Using the record for 13B03 (VHH, Class 4 Nanobody (cross-reactive: anti-IL-17A, IL-17F and IL-17A/F); also called IL17MS13B03; not shown: c-myc, His6 tag) VHH: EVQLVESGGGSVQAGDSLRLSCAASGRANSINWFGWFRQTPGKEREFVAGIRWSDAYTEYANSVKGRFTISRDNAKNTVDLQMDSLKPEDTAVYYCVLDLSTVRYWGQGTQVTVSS , report its IL-17A-induced IL-6 production in HT-1080 cells, IC50.
Ans. 2.9

Qu. Requested field: IL-17A-induced IL-6 production in HT-1080 cells, IC50. Item: 01D06 (VHH, Class 2 Nanobody (anti-IL-17A and IL-17A/F); not shown: c-myc, His6 tag) VHH: EVQLVESGGGLVQAGGSLRLSCAADGRTFSTYGMTWFRQVPGKEREFVAHIPRSTYSPYYANSVKGRFTIARDDAKSTVYLQMNSLKPEDTAVYYCAVFTGGTYYVPTAYDYWGQGTQVTVSS
Ans. 42.8

Qu. Form field: reported IL-17A-induced IL-6 production in HT-1080 cells, IC50 of 03B08 (VHH, Class 1 Nanobody (anti-IL-17A); not shown: c-myc, His6 tag) VHH: EVQLVESGGGLVQAGGSLRLSCAASGFTFDDYAIGWFRQAPGKEREGVSCISSSDGSIYYADSVKGRFTISSDNAKNTVYLQMNSLKPEDTAVYHCARFGRTGWAEECVDYDYWGQGTQVTVSS
Ans. 3.6

Qu. Recorded IL-17A-induced IL-6 production in HT-1080 cells, IC50 for 03C07 (VHH, Class 2 Nanobody (anti-IL-17A and IL-17A/F); not shown: c-myc, His6 tag) VHH: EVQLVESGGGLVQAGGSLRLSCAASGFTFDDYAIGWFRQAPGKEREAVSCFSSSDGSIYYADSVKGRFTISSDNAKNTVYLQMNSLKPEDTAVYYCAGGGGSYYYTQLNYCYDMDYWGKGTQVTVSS , please?
Ans. 4.2

Qu. Report IL-17A-induced IL-6 production in HT-1080 cells, IC50 for 09G10 (VHH, Class 2 Nanobody (anti-IL-17A and IL-17A/F); not shown: c-myc, His6 tag) VHH: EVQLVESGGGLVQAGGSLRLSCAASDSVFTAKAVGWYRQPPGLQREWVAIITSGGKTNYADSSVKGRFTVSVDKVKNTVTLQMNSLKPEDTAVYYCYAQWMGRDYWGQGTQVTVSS please.
Ans. 4

Qu. Which measured IL-17A-induced IL-6 production in HT-1080 cells, IC50 value corresponds to 13E02 (VHH, Class 4 Nanobody (cross-reactive: anti-IL-17A, IL-17F and IL-17A/F); also called IL17MS13E02; not shown: c-myc, His6 tag) VHH: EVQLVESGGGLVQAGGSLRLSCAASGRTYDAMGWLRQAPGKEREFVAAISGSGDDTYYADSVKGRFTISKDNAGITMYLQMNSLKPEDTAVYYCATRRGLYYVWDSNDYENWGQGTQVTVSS ?
Ans. 3.5

Qu. # IL-17A-induced IL-6 production in HT-1080 cells, IC50 lookup, item 01A01 (VHH, Class 4 Nanobody (cross-reactive: anti-IL-17A, IL-17F and IL-17A/F); not shown: c-myc, His6 tag) VHH: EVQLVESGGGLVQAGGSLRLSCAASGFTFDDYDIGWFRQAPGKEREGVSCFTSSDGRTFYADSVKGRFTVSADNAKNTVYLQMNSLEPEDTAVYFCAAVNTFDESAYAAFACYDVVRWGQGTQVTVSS
Ans. 2.7

Qu. Could you tell me which IL-17A-induced IL-6 production in HT-1080 cells, IC50 is on file for 13E05 (VHH, Class 4 Nanobody (cross-reactive: anti-IL-17A, IL-17F and IL-17A/F); not shown: c-myc, His6 tag) VHH: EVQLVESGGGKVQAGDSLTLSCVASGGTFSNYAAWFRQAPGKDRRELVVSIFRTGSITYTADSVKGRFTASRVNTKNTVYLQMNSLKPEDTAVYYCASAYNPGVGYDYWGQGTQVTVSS ?
Ans. 12.3

Qu. What value of IL-17A-induced IL-6 production in HT-1080 cells, IC50 has been reported for the following binder? 03E05 (VHH, Class 1 Nanobody (anti-IL-17A); not shown: c-myc, His6 tag) VHH: EVQLVESGGGLVQAGGSLRLSCAASGVTFDDYSIGWFRQAPGKEREGVSCISSSDGIPYYSDFVKGRFTTSIDNAKNTVYLQMNSLKPEDTAVYYCAAGFGRLCAEFDSWGQGTQVTVSS
Ans. 4

Qu. // query IL-17A-induced IL-6 production in HT-1080 cells, IC50 value for entry 10A04 (VHH, Class 4 Nanobody (cross-reactive: anti-IL-17A, IL-17F and IL-17A/F); not shown: c-myc, His6 tag) VHH: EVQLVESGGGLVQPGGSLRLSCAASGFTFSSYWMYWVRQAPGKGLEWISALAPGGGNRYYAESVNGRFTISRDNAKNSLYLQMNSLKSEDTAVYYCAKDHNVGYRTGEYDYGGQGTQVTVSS
Ans. 65.4

Qu. Param item = 01D02 (VHH, Class 1 Nanobody (anti-IL-17A); not shown: c-myc, His6 tag) VHH: EVQLVESGGGLVQAGGSLRLSCAASGLSFSSYALGWFRQAPGKERDFVAAINWSGDNTHYADSVKGRFTISRDNAKNTVSLQMNSLKPEDTAVYYCAAQLGYESGYSLTYDYDYWGQGTQVTVSS ; retrieve measured IL-17A-induced IL-6 production in HT-1080 cells, IC50.
Ans. 4.8
